TARGET OR TEST SYSTEM: T1, human 5MP1-CTD (human, UniProt Q9Y6E2 248-419)
T1 sequence (looked up): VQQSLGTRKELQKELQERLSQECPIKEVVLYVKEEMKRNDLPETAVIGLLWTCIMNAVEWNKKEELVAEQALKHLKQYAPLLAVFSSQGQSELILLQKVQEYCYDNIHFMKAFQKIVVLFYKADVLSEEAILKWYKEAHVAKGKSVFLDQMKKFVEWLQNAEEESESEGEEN
ASSAY DETAILS: NMR titration
Entries and their pKd values follow.
Answer as the number alone; pKd is minus log10 of concentration in mol/L.

Prompt: Endpoint output: pKd of MSGDEMIFDPTMSKKKKKKKKPFMLDEEGDTQTEETQPSETKEVE (domain or fragment, UniProt P20042 1-45, looked up) [human eIF2β-K1 (K-box 1 with surrounding segments)] . Value?
Response: 4.70

Prompt: Endpoint output: pKd of human eIF2β-K3 (K-box 3 with surrounding segments) (domain or fragment, UniProt P20042 106-173, looked up) DVQEPTEPEDDLDIMLGNKKKKKKNVKFPDEDEILEKDEALEDEDNKKDDGISFSNQTGPAWAGSERD . Value?
Response: 4.43

Prompt: Endpoint output: pKd of DTRKKDASDDLDDLNFFNQKKKKKKTKKIFDIDEAEEGVKDLKIES (domain or fragment, UniProt P20042 60-105, looked up) [human eIF2β-K2 (K-box 2 with surrounding segments)] . Value?
Response: 4.74
